- target_or_system: Human IDO1 (Homo sapiens)
- test_details: IDO Kynurenine Assay with Human IDO1/HEK293 Cells
- reported_conditions: read-out: HEK human IDO-1 (IC50)
test_readout: pIC50
Convention used: pIC50 is expressed as -log10 of the molar concentration.

smiles_structure: CC(C)CN(c1ccc(-c2cc(F)ccc2C(=O)O)cc1NC(=O)Nc1ccc2ncncc2c1)C1CCCCC1
pIC50: 5.91
--
smiles_structure: Cc1ccc(NC(=O)Nc2cc(-c3ccccc3-c3nnn[nH]3)ccc2N(CC(C)C)CC(C)C)cc1
pIC50: 8.48
--
smiles_structure: COc1ccc(-c2ccc(N(CC(C)C)CC(C)C)c(NC(=O)Nc3ccc(C)cc3)c2)c(C(=O)O)c1
pIC50: 6.64

Next up:
Field pIC50 (entry "Cc1ccc(NC(=O)Nc2cc(-c3ccccc3-c3nnn[nH]3)ccc2N(CC(C)C)CC(C)C)cn1" ) reads 7.15

###

- target_or_system: IDO (Homo sapiens)
- test_details: LLE_IDO_ABS_DR (IDO assay)
pIC50: −log10 of the molar value.
Classify as follows. Reported pIC50 greater than or equal to 7: yes. Reported pIC50 below: no.

Some solved entries appear below for comparison.
compound: O=C(Nc1ccc(C(F)(F)F)cc1F)Nc1cc(-c2ccccc2-c2nnn[nH]2)ccc1N(CCC(F)(F)F)Cc1ccccn1
target_or_system: IDO (Homo sapiens)
label_class: yes
//
compound: Cc1ccc(NC(=O)Nc2cc(-c3ccccc3C(=O)O)ccc2N(CCC(F)(F)F)Cc2cccc(Cl)c2)cc1
target_or_system: IDO (Homo sapiens)
label_class: no
//
compound: CC(C)CN(CC(C)C)c1ccc(-c2ccccc2-c2nnn[nH]2)cc1NC(=O)Nc1ccc(F)c(C#N)c1
target_or_system: IDO (Homo sapiens)
label_class: no
//
compound: O=C(Nc1ccc(C2CC2)cc1)Nc1cc(-c2ccccc2-c2nnn[nH]2)ccc1N(CCCC(F)(F)F)Cc1ccc(Cl)cc1
target_or_system: IDO (Homo sapiens)
label_class: yes
//
compound: CC(C)CN(CC(C)C)c1ccc(-c2ccccc2-c2nnn[nH]2)cc1NC(=O)Nc1cccc(F)c1F
target_or_system: IDO (Homo sapiens)
label_class: yes

-- ask Hi team, for "COC(=O)c1cnc(NC(=O)Nc2cc(-c3ccccc3-c3nnn[nH]3)ccc2N(CC(C)C)CC(C)C)s1" , is the recorded pIC50 at or above 7?
-- reply yes

-- ask Does pIC50 meet or surpass 7 for Cc1ccc(NC(=O)Nc2cc(-c3ccccc3-c3nnn[nH]3)ccc2N2CCC(c3ccccc3)C2)cc1 (racemic) ?
-- reply yes

-- ask Entry "Cc1ccc(NC(=O)Nc2cc(-c3ccccc3C(=O)O)c(F)cc2N(CC(F)F)CC2CC2)cc1" : is its pIC50 no less than 7?
-- reply no

-- ask Dear colleague, could you confirm whether "C#CCOc1ccc(NC(=O)Nc2cc(-c3ccccc3-c3nnn[nH]3)ccc2N(CC(C)C)CC(C)C)cc1" has pIC50 at or above 7?
-- reply yes

-- ask Is pIC50 at least 7? Consider "C#CCOc1ccccc1NC(=O)Nc1cc(-c2ccccc2-c2nnn[nH]2)ccc1N(CC(C)C)CC(C)C"
-- reply no

-- ask State whether the measured pIC50 reaches 7, counting equality as reaching it, for "CC(C)CN(c1ccc(-c2ccccc2-c2nnn[nH]2)cc1NC(=O)Nc1ccc(OC(F)(F)F)cc1)C1CCC(F)(F)CC1"
-- reply yes

-- ask Reported pIC50 at or above 7? "CC(C)CN(c1ccc(-c2cc(F)ccc2C(=O)O)cc1NC(=O)Nc1ccc(F)cc1F)C(C)C"
-- reply yes

-- ask Is pIC50 at least 7? Consider "Cc1ccc(NC(=O)Nc2cc(-c3cc(F)ccc3C(=O)O)ccc2N(CCC(F)(F)F)Cc2cccc(Cl)c2)cc1"
-- reply no

-- ask Say whether "CCCCN(c1ccc(-c2cc(F)ccc2C(=O)O)cc1NC(=O)Nc1ccc(C)cc1)C1CCCCC1" shows pIC50 of 7 or more.
-- reply yes

###

- target_or_system: Human IDO1 (Homo sapiens, UniProt P14902)
- Sequence (P14902 whole entry): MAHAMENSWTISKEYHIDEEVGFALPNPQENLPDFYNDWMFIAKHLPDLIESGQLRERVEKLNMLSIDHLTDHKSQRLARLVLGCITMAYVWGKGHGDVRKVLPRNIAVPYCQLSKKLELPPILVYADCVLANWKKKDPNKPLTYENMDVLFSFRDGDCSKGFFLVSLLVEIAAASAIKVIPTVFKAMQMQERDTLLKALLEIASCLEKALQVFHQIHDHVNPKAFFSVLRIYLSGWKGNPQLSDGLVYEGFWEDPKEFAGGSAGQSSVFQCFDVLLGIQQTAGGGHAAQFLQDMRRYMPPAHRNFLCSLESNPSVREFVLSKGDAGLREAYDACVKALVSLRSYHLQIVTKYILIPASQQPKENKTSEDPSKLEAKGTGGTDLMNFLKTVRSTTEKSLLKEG
- test_details: IDO Kynurenine Assay with Human IDO1/HEK293 Cells
- reported_conditions: read-out: HEK human IDO-1 (IC50)
# reported IC50; entries follow
Numbers only; they are read as nM.

// known answers, use as guide
smiles_structure: Cc1ccc(C(=O)O)c(-c2ccc(N(CC(C)C)CC(C)C)c(NC(=O)Nc3ccc(Cl)cc3F)c2)c1
target_or_system: Human IDO1 (Homo sapiens, UniProt P14902)
IC50 / nM: 40
//
smiles_structure: Cc1ccc(NC(=O)Nc2cc(-c3ccccc3-c3nnn[nH]3)c(F)cc2N(CC(C)C)C2CCC(F)(F)CC2)cc1
target_or_system: Human IDO1 (Homo sapiens, UniProt P14902)
IC50 / nM: 3.05
//
smiles_structure: Cc1ccc(NC(=O)Nc2cc(-c3cc(F)ccc3C(=O)O)cc(F)c2N(CC(C)C)C2CCCCC2)cc1
target_or_system: Human IDO1 (Homo sapiens, UniProt P14902)
IC50 / nM: 3

Record summary for "CC(C)CN(c1ccc(-c2cc(F)ccc2C(=O)O)cc1NC(=O)Nc1cncnc1)C1CCCCC1" : reported IC50 = 10

For "Cc1cc(NC(=O)Nc2cc(-c3cc(F)ccc3C(=O)O)c(F)cc2N(CC(C)C)C2CCC(F)(F)CC2)on1" the molecule record lists IC50 as 8.44

In plain terms, "Cc1ccc(NC(=O)Nc2cc(-c3cccc(OC(F)(F)F)c3C(=O)O)ccc2N(CC(C)C)CC(C)C)cc1" has a documented IC50 of 50

Recorded result, "COCCN(c1ccc(-c2ccccc2-c2nnn[nH]2)cc1NC(=O)Nc1ccc(Cl)cc1F)C1CCCCC1" , IC50: 0.661

###

- target_or_system: UniProtKB P14902
- test_details: IDO Kynurenine Assay with Human IDO1/HEK293 Cells
- reported_conditions: read-out: HEK human IDO-1 (IC50)
pIC50: −log10 of the molar value.
Would you please tag the item class 1 when its pIC50 is 7 or above, and class 0 when it is below?

Observe how each entry below is paired with its result.
compound: Cc1ccc(NC(=O)Nc2cc(-c3cc(F)ccc3C(=O)O)ccc2N2CCCc3ccccc32)cc1 [Example 373]
label_class: class 0
//
compound: Cc1ccc(NC(=O)Nc2cc(-c3ccccc3-c3nnn[nH]3)ccc2N(CC(C)C)C2CCOCC2)cc1 [Example 379]
label_class: class 1

-- ask Say whether Cc1ccc(NC(=O)Nc2cc(-c3ccccc3-c3nnn[nH]3)ccc2N(CC(C)C)[C@H]2CC[C@@H](C(F)(F)F)CC2)cc1 [Example 305] shows pIC50 of 7 or more.
-- reply class 1

-- ask Kindly determine if pIC50 recorded for CC(C)CN(CC(C)C)c1ccc(-c2ccccc2-c2nnn[nH]2)cc1NC(=O)Nc1ccc(CC#N)cc1 [Example 457] is above or exactly 7.
-- reply class 0

-- ask Check this compound for pIC50 at or above 7: Cc1cc(NC(=O)Nc2cc(-c3cc(F)ccc3C(=O)O)c(F)cc2N(CC(C)C)[C@@H]2C[C@H]3CC[C@@H]2C3)no1 [Example 385]
-- reply class 0

###

- target_or_system: IDO (Homo sapiens, UniProt P14902)
- Sequence (P14902 whole entry): as above
- test_details: LLE_IDO_ABS_DR (IDO assay)
pIC50: −log10 of the molar value.
Quick rule for you: pIC50 at 7 or higher means label 1, lower means label 0.

// below: answered compounds
compound: Cc1ccc(NC(=O)Nc2cc(-c3ccccc3C(=O)O)ccc2N(CCC(F)(F)F)C2CCCCC2)cc1
target_or_system: IDO (Homo sapiens, UniProt P14902)
label_class: label 1
//
compound: Cc1ccc(NC(=O)Nc2cc(-c3ccccc3-c3nnn[nH]3)ccc2N2CCC[C@@H]3CCCC[C@@H]32)cc1
target_or_system: IDO (Homo sapiens, UniProt P14902)
label_class: label 1
//
compound: O=C(Nc1ccc(OC(F)(F)F)cc1)Nc1cc(-c2ccccc2-c2nnn[nH]2)ccc1N1CCC(F)(F)C1
target_or_system: IDO (Homo sapiens, UniProt P14902)
label_class: label 0
//
compound: Cc1ccc(NC(=O)Nc2cc(-c3ccccc3C(=O)O)c(F)cc2N(CC(C)C)C2CCCCC2)cc1
target_or_system: IDO (Homo sapiens, UniProt P14902)
label_class: label 1
//
compound: O=C(Nc1ccc(C(F)(F)F)cc1F)Nc1cc(-c2ccccc2-c2nnn[nH]2)ccc1N1CCC(c2ccccc2)C1 (racemic)
target_or_system: IDO (Homo sapiens, UniProt P14902)
label_class: label 1

Next compound, please.
-- ask Does the reported pIC50 for "CC(C)CN(CC(C)C)c1ccc(-c2ccccc2-c2nnn[nH]2)cc1NC(=O)Nc1cc(C(N)=O)ccc1Cl" fall at or above the 7 mark?
-- reply label 0

###

- target_or_system: Human IDO1 (Homo sapiens)
- test_details: IDO Kynurenine Assay with Human IDO1/HEK293 Cells
- reported_conditions: read-out: HEK human IDO-1 (IC50)
test_readout: IC50 (nM)
Report the value in nM with no unit label.

Kindly note the recorded IC50 for "CC(C)CN(c1cc(F)c(-c2cc(F)ccc2C(=O)O)cc1NC(=O)Nc1ccc(C2CCCCC2)cc1)C1CCCCC1" , which is 5520

The compound listed as "CC(C)CN(c1c(F)cc(-c2ccccc2-c2nnn[nH]2)cc1NC(=O)Nc1ccc(Cl)cc1F)C1CCCCC1" has a reported IC50 of 1.16

IC50 recorded for this compound, "COCCN(c1ccc(-c2ccccc2-c2nnn[nH]2)cc1NC(=O)Nc1ccc(C)cc1)C1CCCCC1" , is 2.45

Kindly note the recorded IC50 for "CCC(CC)N(CC(C)C)c1ccc(-c2ccccc2-c2nnn[nH]2)cc1NC(=O)Nc1ccc(C)cc1" , which is 3.21

Sample "CC(C)CN(CC(C)C)c1ccc(-c2ccccc2-c2nnn[nH]2)cc1NC(=O)NC1CCCC1" ; IC50 observed: 790

The compound identified as "CC(C)CN(c1ccc(-c2cc(F)ccc2C(=O)O)cc1NC(=O)Nc1ccc(C#N)nc1)C1CCCCC1" registered its IC50 at 3.46

Lab note: "O=C(Nc1ccc(C2CC2)c(F)c1)Nc1cc(-c2ccccc2-c2nnn[nH]2)ccc1N(CCC(F)(F)F)Cc1ccc(F)cc1C(F)(F)F" gave IC50 of 220

Origin of measurements: patent US9758492B2
